system: CAKI-1 renal; assay: NCI-60 one-dose screen, 48 h; conditions: 10 µM unless noted
The panel holds about 83,000 compounds, 20% with a hit somewhere; the sample as a whole holds those more often. Calls of active or inactive are those of the source. The calls were made as follows: active = growth percent below 10; inactive = the rest.
Select the matching outcome among active, inactive

QUERY: How did this test come out for "Cc1cc(C(=O)c2ccc(Cl)cc2)ccc1O" ?
RESULT: inactive

QUERY: How was "O=S(=O)(O)c1cnccn1" classified in this test?
RESULT: inactive

QUERY: Assay outcome for CC1(C)OCC(COC(c2ccccc2)(c2ccccc2)c2ccccc2)O1 (stereo not given) : what was it?
RESULT: inactive

QUERY: Please let me know the test result on file for Nc1nc2ncc(CNc3ccc(C(=O)NC(CCC(=O)NC(CCC(=O)NC(CCC(=O)NC(CCC(=O)NC(CCC(=O)O)C(=O)O)C(=O)O)C(=O)O)C(=O)O)C(=O)O)cc3)nc2c(=O)[nH]1 (stereo not given) .
RESULT: inactive

QUERY: What classification did "CCCCCCCCc1cc(Cl)c(O)c(Cl)c1" end up with in this test?
RESULT: inactive

QUERY: # fetch the recorded call for "Clc1ccc(Cc2nc3ccccc3s2)cc1" here
RESULT: inactive

QUERY: // outcome(item) with item = "O=C(NOC(=O)c1ccccc1)c1ccccc1"
RESULT: inactive

QUERY: Call for entry CCC(C)C(N)C(=O)NC(CC(N)=O)C(=O)NC(CC(C)C)C(=O)NC(CCCCN)C(=O)NC(C)C(=O)NC(CC(C)C)C(=O)NC(C)C(=O)NC(C)C(=O)NC(CC(C)C)C(=O)NC(C)C(=O)NC(CCCCN)C(=O)NC(CCCCN)C(=O)NC(C(=O)NC(CC(C)C)C(N)=O)C(C)CC (stereo not given) :
RESULT: inactive

----------
tested on: SNB-19 CNS; assay: NCI-60 one-dose screen, 48 h (100 = growth as untreated, 0 = no growth, -100 = all killed); settings: 10 µM unless noted
This is part of a sample that, as a whole, favours compounds with a hit. Of some 83,000 tested, about 20% had one in any assay.
MEASUREMENT KIND: growth (%)
Answer in %, number only, no unit symbol.

{"MOLECULE": "CCCCCCN(CCCCCC)CCCNc1nccc2ccccc12", "TESTED SYSTEM": "SNB-19 CNS", "growth (%)": 20.3}

QUERY: I'd like to know its growth. The molecule in question is O=C(c1ccccc1)C(O)C(Br)(CBr)c1ccccc1 (stereo not given)
RESULT: 90.5

QUERY: Given "COc1cc(/C=C2\SC(=S)N(/C=C/c3nc4ccccc4[nH]c3=O)C2=O)cc(OC)c1OC" , state its recorded growth.
RESULT: 97.5

----------
tested on: 786-0 renal; test: NCI-60 one-dose screen, 48 h; details: 10 µM unless noted
This is part of a sample that, as a whole, favours compounds with a hit. Of some 83,000 tested, about 20% had one in any assay. Calls of active or inactive are those of the source. How the source made its calls: active means growth percent below 10; inactive means the rest. *1 amine or outer side, *2 acyl side, *3 side chain or, on linkers, in order; H or OH if unused. Where a SMILES comes first, the peptide text is derived from it. [ ]: non-standard residue; d: D form. The star is where a group is joined. X5 = CCC(=O)CC1CC(C)CC(C(=O)[*:2])N1[*:1]; X4 = CCCCCCCCC(C)C(=O)*; Aib = CC(C)(N)C(=O)O; X6 = CC(CN(C)CCO)N*
API: response.call in True (active), False (inactive)

{"MOLECULE": "O=C(O)c1cccc2cccc(-c3c4ccc(=O)c(O)c-4oc4c(O)c(O)ccc34)c12", "LABEL": "False"}
{"MOLECULE": "O=C1C(=O)c2cccnc2-c2ncccc21", "LABEL": "True"}
{"MOLECULE": "CCCCCCCCC(C)C(=O)N1CCCC1C(=O)N1C(CC(=O)CC)CC(C)CC1C(=O)NC(C)C(=O)NC(C)(C)C(=O)NC(C)(C)C(=O)NC(C(=O)NC(C)C(=O)NC(C)(C)C(=O)NC(C)(C)C(=O)NC(C)CN(C)CCO)C(C)CC (stereo unspecified) (X4-P[X5]A[Aib][Aib]IA[Aib][Aib]-X6; configuration not given here)", "LABEL": "True"}
{"MOLECULE": "CC1(O)CCCCCC1", "LABEL": "False"}
{"MOLECULE": "COC(=O)Nc1nc2ccc(C3(c4ccc(F)cc4)OCCO3)cc2[nH]1", "LABEL": "False"}

QUERY: Per the records of this test, what outcome belongs to Cc1ccccc1N=C(N)Nc1ccccc1C (tested in a mixture with another compound) ?
RESULT: False

QUERY: Called result for "O=C1C=CC(O)=CC1=P(c1ccccc1)(c1ccccc1)c1ccccc1"
RESULT: False

QUERY: Answer briefly: the call reported for "O=C1C=CC(=O)N1C1CCCCCCCCCCC1" in this assay.
RESULT: False

QUERY: Test call for this molecule, please: CCN(CC)CC(O)c1cc(-c2ccc(Cl)cc2)nc2cc(Cl)ccc12 (stereo unspecified)
RESULT: False

QUERY: Query: recorded result category for "NNc1cccc([N+](=O)[O-])c1" in this test
RESULT: False

QUERY: Write down the call the test reported for this molecule. Item: "Clc1ccc(Cc2nc3ccccc3s2)cc1"
RESULT: False

----------
Test system: SF-268 CNS
Assay: NCI-60 one-dose screen, 48 h
Settings: 10 µM unless noted
Description: Cells are grown in 96 well plates and exposed to the test compound for 48 hours. Compounds are tested at a single concentration, which is 10^-5 M for most compounds. The reported endpoint is percent growth (GI% or GIPRCNT), where numbers from 0 - 100% represent growth inhibition, and numbers from -100% - 0 represent cell death. For example, a value of 40 represents 60% growth inhibition. A value of 0 means no net growth occurred over the course of the experiment. […]
This is part of a sample that, as a whole, favours compounds with a hit. Of some 83,000 tested, about 20% had one in any assay. Active and inactive are the calls of the source. Rule for the calls: active = growth percent below 10; inactive = the rest.
Choose one outcome from this list and give only that: active, inactive

Illustrative cases are given below, each with its answer.
{"COMPOUND": "CCCCN(CCCC)CCCCCCCCCCO", "LABEL": "inactive"}
{"COMPOUND": "CCN(CC)c1ccc(/C=C\\C(=O)c2ccc(NC(C)=O)cc2)cc1", "LABEL": "inactive"}
{"COMPOUND": "CC(=O)c1c(O)c(C)c(O)c2c1OC1=CC(=O)C(C(C)=O)C(=O)C12C (centres undefined)", "LABEL": "inactive"}
{"COMPOUND": "NC(=S)N/N=C\\c1nccc2c(C(F)(F)F)cccc12", "LABEL": "active"}
{"COMPOUND": "CCCCCCCCC(=O)OCCCC(CCC(CCC1CCCO1)OC(=O)CCCCCCCC)OC(=O)CCCCCCCC (centres undefined)", "LABEL": "inactive"}
{"COMPOUND": "S=C=Nc1ccc(N2CCOCC2)cc1", "LABEL": "inactive"}
{"COMPOUND": "NC(CS/C(Cl)=C/Cl)C(=O)O (centres undefined)", "LABEL": "inactive"}
{"COMPOUND": "CC12CCC(O)CC1=CCC1C2CCC2(C)C3=NN=CC3CC12 (centres undefined)", "LABEL": "inactive"}

QUERY: GET /call?item= "O=C1CSC(=S)N1Cc1cccnc1" returns the recorded outcome of this test.
RESULT: inactive

QUERY: Test call for this compound, please: CC(=O)C1Cc2ccccc2C1=O (centres undefined)
RESULT: inactive

QUERY: Would you mind telling me which call this test gave "O=C(c1ccccc1)c1ccc(O)c2ncccc12" ?
RESULT: inactive

QUERY: Please let me know the test result on file for "NCCCN(CCCN)CCCNCc1c2ccccc2c(CNCCCN(CCCN)CCCN)c2ccccc12" .
RESULT: inactive

QUERY: Test call for this compound, please: "CCOC(=O)C1=C(C(=O)c2ccccc2)C(c2cccc([N+](=O)[O-])c2)C(C(=O)c2ccccc2)=C(C(=O)OCC)N1"
RESULT: inactive

----------
system: NCI-H226 lung; experiment: NCI-60 one-dose screen, 48 h; details: 10 µM unless noted
The panel holds about 83,000 compounds, 20% with a hit somewhere; the sample as a whole holds those more often. Activity calls are given as the source filed them. How the source made its calls: active means growth percent below 10; inactive means the rest.
Outcome field: choose from active, inactive

Example entries begin here.
{"LINE NOTATION": "CN(C)c1ccc(/C=C/c2cc[n+](C)c(/C=C/c3ccc(N(C)C)cc3)c2)cc1", "LABEL": "inactive"}
{"LINE NOTATION": "O=C(O)c1cc2c(s1)C(=O)c1sccc1C2=O", "LABEL": "inactive"}
{"LINE NOTATION": "CCCOC(=O)c1nc(N(CC2CCCCC2)C(=O)NC)sc1/N=C/c1ccccc1", "LABEL": "inactive"}
{"LINE NOTATION": "Cc1nc(Sc2nc3ccc([N+](=O)[O-])cc3s2)sc1C", "LABEL": "active"}

We now examine a further compound.
QUERY: Which outcome did this test record for the compound "O=C1C=CC(=O)c2c(O)c(CO)c(CO)c(O)c21" ?
RESULT: inactive
